Tested on: Escherichia coli TOP10
Experiment Description: shrunken log2 fold change of peptide-encoding DNA abundance (4.5 h post-induction vs induction); higher = less antimicrobial activity (less host growth inhibition)
Applied Conditions: time post-induction: 4.5 h; library: site-saturation at positions 5, 18, 19, 20
This listing pairs sequences with measured shrunken log2 fold change.

1) RRIRHRPPRLPRPRPRPIPVPRP; -0.037
2) RRIRTRPPRLPRPRPRPNTFPRP; -0.668
3) RRIRVRPPRLPRPRPRPVLYPRP; -0.281
4) RRIRIRPPRLPRPRPRPTECPRP; 0.00877
5) RRIRARPPRLPRPRPRPHFAPRP; 0.733
6) RRIRWRPPRLPRPRPRPPHVPRP; 0.444
7) RRIRHRPPRLPRPRPRPPKPPRP; 0.116
8) RRIRMRPPRLPRPRPRPEFFPRP; 0.277
9) RRIRQRPPRLPRPRPRPHPDPRP; -0.0624
10) RRIRLRPPRLPRPRPRPYHYPRP; -0.16

# input sequence: RRIRPRPPRLPRPRPRPRHFPRP ; wanted: its shrunken log2 fold change
0.168

Now the same for RRIRWRPPRLPRPRPRPDVDPRP
-0.0413

* * *

// shrunken log2 fold change lookup, one value per entry
Tested on: Escherichia coli TOP10
Experiment Description: shrunken log2 fold change of peptide-encoding DNA abundance (4.5 h post-induction vs induction); higher = less antimicrobial activity (less host growth inhibition)
Applied Conditions: time post-induction: 4.5 h; library: site-saturation at positions 5, 18, 19, 20
Answer with a bare number; do not write a unit.

1. RRIRNRPPRLPRPRPRPSFKPRP; -0.25
2. RRIRVRPPRLPRPRPRPHQKPRP; 0.375
3. RRIRNRPPRLPRPRPRPGLGPRP; 0.611
4. RRIRCRPPRLPRPRPRPLPSPRP; 0.214
5. RRIRHRPPRLPRPRPRPCEIPRP; -0.171

Now let's try a different one.
Identify the measured shrunken log2 fold change of RRIRHRPPRLPRPRPRPQNVPRP for Escherichia coli TOP10.
-0.0702

* * *

A collection of sequences and their measured shrunken log2 fold change
Tested on: Escherichia coli TOP10;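 also: peptides expressed intracellularly from a pBAD plasmid library in pooled LB shake-flask culture, induced with 0.3% L-arabinose, DNA abundance read by NGS, three biological replicates, DESeq2 with apeglm shrinkage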
Experiment Description: shrunken log2 fold change of peptide-encoding DNA abundance (4.5 h post-induction vs induction); higher = less antimicrobial activity (less host growth inhibition)
Applied Conditions: time post-induction: 4.5 h; library: site-saturation at positions 5, 18, 19, 20
# output: bare number, no unit

1. RRIRRRPPRLPRPRPRPSWLPRP; 0.202
2. RRIRGRPPRLPRPRPRPAYAPRP; 0.0503
3. RRIRPRPPRLPRPRPRPDEHPRP; -0.205
4. RRIRRRPPRLPRPRPRPSHKPRP; -0.0351
5. RRIRMRPPRLPRPRPRPRPVPRP; 1.17

Bench note: what shrunken log2 fold change did RRIRGRPPRLPRPRPRPPHPPRP show?
0.643

Now try RRIRPRPPRLPRPRPRPLLQPRP .
0.16

Thanks! And RRIRARPPRLPRPRPRPQVPPRP ?
0.117

Continue with RRIRLRPPRLPRPRPRPCPKPRP
0.136

Again, but for RRIRVRPPRLPRPRPRPYDGPRP
-0.00822

Same question for RRIRPRPPRLPRPRPRPEQTPRP please.
0.0268

Moving on to RRIRQRPPRLPRPRPRPPSNPRP
-0.481

Queued: RRIRHRPPRLPRPRPRPLELPRP
-0.0293

What about this sequence? RRIRRRPPRLPRPRPRPRRMPRP
0.206

Try RRIRFRPPRLPRPRPRPLRSPRP next.
0.259
